# Tested system: FLJ39196 clone-derived protein (human neurocalcin δ) (Homo sapiens, UniProt P61601)
# Construct: A human full-length cDNA clone was expressed as a protein with an N-terminal His tag; His tag (N); made in house; host or cells: Escherichia coli BL21star(DE3)pLysS (pDEST17 Gateway expression plasmid)
# Protocol details: SEC/MS interaction analysis (size exclusion spin column and mass analysis) with FLJ39196 clone-derived protein
# Type: binding
# Applied conditions: protein 0 μM (protein-free reference), compound 100 μM
Structures can show the parent of a compound that is named as a salt.
Property measured: spectral intensity of the compound in the SEC spin column filtrate (protein fraction)
Write no unit; give the number alone.

Compound	Number
CCCCCCCCNC(C)C(O)c1ccc(SC(C)C)cc1 (stereo not drawn) [Suloctidil]	4969067
OCCN1CCN(CC/C=C2/c3ccccc3Sc3ccc(C(F)(F)F)cc32)CC1 [Flupentixol cis-(Z)]	138331819
c1ccc(-c2ccc(C(c3ccccc3)n3ccnc3)cc2)cc1 (stereo not drawn) [Bifonazole]	30705006
CCc1oc2ccccc2c1C(=O)c1cc(Br)c(O)c(Br)c1 [Benzbromarone]	378850

Which spectral intensity of the compound in the SEC spin column filtrate (protein fraction) is reported for this compound? CC(O)(CS(=O)(=O)c1ccc(F)cc1)C(=O)Nc1ccc(C#N)c(C(F)(F)F)c1 (stereo not drawn) [Bicaltamide]
3889442

Which spectral intensity of the compound in the SEC spin column filtrate (protein fraction) is reported for this compound? C[C@]12Cc3c[nH]nc3C[C@@H]1CC[C@@H]1[C@@H]2CC[C@@]2(C)[C@H]1CC[C@]2(C)O [stanozolol]
3830491

Which spectral intensity of the compound in the SEC spin column filtrate (protein fraction) is reported for this compound? CN(C)CC/C=C1/c2ccccc2Sc2ccc(Cl)cc21 [Chlorprothixene]
30558420

Which spectral intensity of the compound in the SEC spin column filtrate (protein fraction) is reported for this compound? COC(=O)[C@H]1[C@H]2C[C@@H]3c4[nH]c5cc(OC)ccc5c4CCN3C[C@H]2C[C@@H](OC(=O)/C=C/c2cc(OC)c(OC)c(OC)c2)[C@@H]1OC [Rescinnamine]
12903374

Which spectral intensity of the compound in the SEC spin column filtrate (protein fraction) is reported for this compound? CC(C)/N=c1\cc2n(-c3ccc(Cl)cc3)c3ccccc3nc-2cc1Nc1ccc(Cl)cc1 [clofazimine]
1781607

Which spectral intensity of the compound in the SEC spin column filtrate (protein fraction) is reported for this compound? CC(NCCC(c1ccccc1)c1ccccc1)c1ccccc1 (stereo not drawn) [Fendiline]
134902492

Which spectral intensity of the compound in the SEC spin column filtrate (protein fraction) is reported for this compound? CC(C)COCC(CN(Cc1ccccc1)c1ccccc1)N1CCCC1 (stereo not drawn) [Bepridil]
358168208

Which spectral intensity of the compound in the SEC spin column filtrate (protein fraction) is reported for this compound? NS(=O)(=O)c1cc2c(cc1Cl)N=C(CSCc1ccccc1)NS2(=O)=O [Benzthiazide]
1323031

Which spectral intensity of the compound in the SEC spin column filtrate (protein fraction) is reported for this compound? CC(C)[C@@]1(NC(=O)[C@@H]2C[C@@H]3c4cccc5[nH]cc(c45)C[C@H]3N(C)C2)O[C@@]2(O)[C@@H]3CCCN3C(=O)[C@H](Cc3ccccc3)N2C1=O [Dihydroergocristine]
75466444

Which spectral intensity of the compound in the SEC spin column filtrate (protein fraction) is reported for this compound? CCOC(=O)Oc1c(OC)cc(C(=O)O[C@@H]2C[C@@H]3CN4CCc5c([nH]c6cc(OC)ccc56)[C@H]4C[C@@H]3[C@H](C(=O)OC)[C@H]2OC)cc1OC [Syrosingopine]
41362697

Which spectral intensity of the compound in the SEC spin column filtrate (protein fraction) is reported for this compound? Clc1ccc(C(OCCN2CCCCC2)c2ccccc2)cc1 (stereo not drawn) [chloperastine]
276180260

Which spectral intensity of the compound in the SEC spin column filtrate (protein fraction) is reported for this compound? O=C(c1ccc(OCCN2CCCCC2)cc1)c1c(-c2ccc(O)cc2)sc2cc(O)ccc12 [Raloxifene hydrochloride]
7909682

Which spectral intensity of the compound in the SEC spin column filtrate (protein fraction) is reported for this compound? O=C1CN=C(c2ccccc2)c2cc(Cl)ccc2N1CC1CC1 [prazepam]
130413200
